Molecular target: human TLR9 (Homo sapiens, UniProt Q9NR96)
Sequence (Q9NR96 26-1032): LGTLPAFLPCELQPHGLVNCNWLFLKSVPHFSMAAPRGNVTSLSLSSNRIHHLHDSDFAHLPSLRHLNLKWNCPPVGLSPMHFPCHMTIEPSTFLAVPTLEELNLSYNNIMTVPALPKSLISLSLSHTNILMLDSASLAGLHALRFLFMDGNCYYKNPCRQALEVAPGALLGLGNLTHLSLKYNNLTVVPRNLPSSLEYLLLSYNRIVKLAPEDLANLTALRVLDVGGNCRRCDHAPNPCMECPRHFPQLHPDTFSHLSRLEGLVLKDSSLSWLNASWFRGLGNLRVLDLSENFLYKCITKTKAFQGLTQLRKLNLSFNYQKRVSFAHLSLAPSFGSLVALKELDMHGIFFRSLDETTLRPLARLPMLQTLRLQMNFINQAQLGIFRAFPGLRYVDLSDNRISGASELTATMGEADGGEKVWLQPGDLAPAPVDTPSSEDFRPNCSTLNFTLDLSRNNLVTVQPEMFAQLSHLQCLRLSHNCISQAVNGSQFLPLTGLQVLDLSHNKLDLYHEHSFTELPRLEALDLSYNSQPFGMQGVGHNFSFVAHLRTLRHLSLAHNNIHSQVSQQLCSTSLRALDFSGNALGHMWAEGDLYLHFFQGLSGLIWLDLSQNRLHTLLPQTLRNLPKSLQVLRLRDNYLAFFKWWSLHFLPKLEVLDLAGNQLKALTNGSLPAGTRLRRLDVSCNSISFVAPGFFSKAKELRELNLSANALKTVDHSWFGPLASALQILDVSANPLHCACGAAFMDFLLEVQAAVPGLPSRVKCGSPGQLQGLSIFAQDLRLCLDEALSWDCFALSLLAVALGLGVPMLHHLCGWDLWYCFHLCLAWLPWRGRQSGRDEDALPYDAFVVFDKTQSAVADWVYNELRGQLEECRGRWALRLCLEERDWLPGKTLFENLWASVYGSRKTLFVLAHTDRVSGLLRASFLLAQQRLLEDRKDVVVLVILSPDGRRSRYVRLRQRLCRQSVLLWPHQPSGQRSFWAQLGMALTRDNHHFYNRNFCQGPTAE
Experiment: TLR9 inhibition reporter assay (HEK-Blue cells, SEAP reporter, ODN2006 stimulation)
Settings: HEK-Blue cells overexpressing human TLR9, SEAP reporter, ODN2006 5 nM
pIC50: −log10 of the molar value.
# pIC50 listing for each entry below

Sample records with pIC50:
{"compound": "Cc1c(-c2ccnc3[nH]ccc23)[nH]c2ccc(C3CCN(C4CCN(C)CC4)CC3)cc12", "pIC50": "6.00 to 7.00"}
{"compound": "CNC(=O)CN1CCC(c2ccc3[nH]c(-c4nn5ncnc5c(OC)c4C)c(C(C)C)c3c2)CC1", "pIC50": "4.30 to 6.00"}
{"compound": "Cc1cc2cc(-c3[nH]c4ccc(C5CCN(C(=O)CN(C)C)CC5)cc4c3C(C)C)cc(CC(C)C)n2n1", "pIC50": "4.30 to 6.00"}
{"compound": "COc1cc(-c2[nH]c3ccc(C4CCN(CCS(C)(=O)=O)CC4)cc3c2C(C)C)cc2ncnn12", "pIC50": "4.30 to 6.00"}
{"compound": "CC(C)c1c(-c2cn(C)c3ncccc23)[nH]c2ccc(C3CCN(C(=O)CN(C)C)CC3)cc12", "pIC50": "4.30 to 6.00"}

Annotate the compound `Cc1cc(-c2[nH]c3ccc(C4CCN(S(=O)(=O)CCN(C)C)CC4)cc3c2C(C)C)cn2nnnc12` with its measured pIC50.
4.30 to 6.00

Annotate the compound `COc1cc(-c2[nH]c3ccc(C4CCNCC4)cc3c2C(C)C)cc2nc(C)cn12` with its measured pIC50.
6.00 to 7.00

Annotate the compound CC(C)c1c(-c2ccnc3[nH]ncc23)[nH]c2ccc(C3CCN(C4CCNCC4O)CC3)cc12 (stereo not drawn) with its measured pIC50.
6.00 to 7.00

Annotate the compound `Cc1cc(-c2[nH]c3ccc(C4CCN(Cc5ncn(C)n5)CC4)cc3c2C(C)C)cn2nnnc12` with its measured pIC50.
4.30 to 6.00

Annotate the compound `CCc1c(-c2ccnc3[nH]ncc23)[nH]c2ccc(C3CCN(Cc4cncn4C)CC3)cc12` with its measured pIC50.
4.30 to 6.00

Annotate the compound `COc1cc(-c2[nH]c3ccc(C4CCN(C(=O)CN(C)C)CC4)cc3c2C(C)C)cn2ccnc12` with its measured pIC50.
6.00 to 7.00

Annotate the compound `CC(C)c1c(-c2ccnc3[nH]ncc23)[nH]c2ccc(C3CCN(Cc4cnccn4)CC3)cc12` with its measured pIC50.
4.30 to 6.00

Annotate the compound `Cc1cc(-c2[nH]c3ccc(C4CCN(C(=O)CN5C[C@H]6CC[C@@H](C5)O6)CC4)cc3c2C(C)C)cn2nnnc12` with its measured pIC50.
4.30 to 6.00

Annotate the compound `CCc1c(-c2ccnc3[nH]ncc23)[nH]c2ccc(C3CCN(Cc4cn[nH]n4)CC3)cc12` with its measured pIC50.
4.30 to 6.00

Annotate the compound `CC(C)c1c(-c2ccc3nccn3c2)[nH]c2ccc(C3CCNCC3)cc12` with its measured pIC50.
6.00 to 7.00

###

Target: human TLR9 (Homo sapiens)
Test: TLR9 inhibition reporter assay (HEK-Blue cells, SEAP reporter, ODN2006 stimulation)
Details: HEK-Blue cells overexpressing human TLR9, SEAP reporter, ODN2006 5 nM
# IC50 listing for each entry below

{"molecule": "CC(C)c1c(-c2ccc3c(N)n[nH]c3c2)[nH]c2ccc(C3CCNCC3)cc12", "result": "100 to 1000 nM"}

Annotate the molecule `CC(C)c1c(-c2cnc3ccnn3c2)[nH]c2ccc(C3CCN(C4COC4)CC3)cc12` with its measured IC50.
1000 to 50000 nM

Annotate the molecule CCOC(=O)N1CCC(N2CCC(c3ccc4[nH]c(-c5ccnc6[nH]ncc56)c(C(C)C)c4c3)CC2)C(C)C1 (stereo not shown) with its measured IC50.
1000 to 50000 nM

Annotate the molecule `Cc1c(-c2[nH]c3ccc(C4CCN(CC(=O)N(C)C)CC4)cc3c2C(C)C)cn2ccnc2c1Cl` with its measured IC50.
1000 to 50000 nM

###

Target: human TLR9 (Homo sapiens, UniProt Q9NR96)
Experiment: TLR9 inhibition reporter assay (HEK-Blue cells, SEAP reporter, ODN2006 stimulation)
Settings: HEK-Blue cells overexpressing human TLR9, SEAP reporter, ODN2006 5 nM
pIC50: −log10 of the molar value.
observation-type: pIC50

Sample records with pIC50:
{"molecule": "Cc1cc2nccn2cc1-c1[nH]c2ccc(C3CCN(CCCN(C)C)CC3)cc2c1C(C)C [Example 856]", "pIC50": "6.00 to 7.00"}
{"molecule": "Cc1ccnc2c1c(-c1[nH]c3ccc(C4CCN(C(=O)CN(C)C)CC4)cc3c1C(C)C)cn2C [Example 457]", "pIC50": "4.30 to 6.00"}
{"molecule": "CC(C)c1c(-c2cc(F)c3nccn3c2)[nH]c2ccc(C3CCN(C(=O)C[C@H](C)O)CC3)cc12 [Example 604]", "pIC50": "< 4.30"}

Lab note: next molecule to report on.
Annotate the molecule Cc1cc(-c2[nH]c3ccc(C4CCN(C(=O)[C@@H]5C[C@@H](O)CN5)CC4)cc3c2C(C)C)cc2nccn12 [Example 539] with its measured pIC50.
4.30 to 6.00

###

# pIC50 listing for each entry below
Target: human TLR9 (Homo sapiens, UniProt Q9NR96)
Assay: TLR9 inhibition reporter assay (HEK-Blue cells, SEAP reporter, ODN2006 stimulation)
Settings: HEK-Blue cells overexpressing human TLR9, SEAP reporter, ODN2006 5 nM
pIC50: −log10 of the molar value.

{"molecule": "CC(C)c1c(-c2ccc3ncoc3c2)[nH]c2ccc(C3CCN(CC(=O)N(C)C)CC3)cc12", "observation-type": "pIC50", "result": "4.30 to 6.00"}
{"molecule": "Cc1cc(-c2[nH]c3ccc(C4CCNCC4)cc3c2C(C)C)cc2ocnc12", "observation-type": "pIC50", "result": "4.30 to 6.00"}
{"molecule": "CCc1c(-c2ccnc3[nH]ncc23)[nH]c2ccc(C3CCNCC3F)cc12 (stereo not shown) [Example 177]", "observation-type": "pIC50", "result": "4.30 to 6.00"}

Annotate the molecule `Cc1cc(-c2[nH]c3ccc(C4CCNCC4)cc3c2C(C)C)c2ccccc2n1` with its measured pIC50.
4.30 to 6.00

###

Biological target: human TLR9 (Homo sapiens, UniProt Q9NR96)
Experiment: TLR9 inhibition reporter assay (HEK-Blue cells, SEAP reporter, ODN2006 stimulation)
Settings: HEK-Blue cells overexpressing human TLR9, SEAP reporter, ODN2006 5 nM
pIC50: −log10 of the molar value.
observation-type: pIC50

Sample records with pIC50:
{"chemical-smiles": "CC(C)c1c(-c2cc(CO)c3nccn3c2)[nH]c2ccc(C3CCN(C(=O)CN(C)C)CC3)cc12", "target": "human TLR9 (Homo sapiens, UniProt Q9NR96)", "pIC50": "6.00 to 7.00"}
{"chemical-smiles": "CNC(=O)CN1CCC(c2ccc3[nH]c(-c4ccn5ccnc5c4)c(CC(F)F)c3c2)CC1", "target": "human TLR9 (Homo sapiens, UniProt Q9NR96)", "pIC50": "6.00 to 7.00"}
{"chemical-smiles": "Cc1cc2nc(-c3[nH]c4ccc(C5CCN(CC(=O)N(C)C)CC5)cc4c3C(C)C)c(F)cn2n1", "target": "human TLR9 (Homo sapiens, UniProt Q9NR96)", "pIC50": "4.30 to 6.00"}

Annotate the compound `CC(C)c1c(-c2ccn3nccc3n2)[nH]c2ccc(C3CCN(CC(=O)N(C)C)CC3)cc12` with its measured pIC50.
4.30 to 6.00

###

# IC50 listing for each entry below
Biological target: human TLR9 (Homo sapiens)
Assay: TLR9 inhibition reporter assay (HEK-Blue cells, SEAP reporter, ODN2006 stimulation)
Settings: HEK-Blue cells overexpressing human TLR9, SEAP reporter, ODN2006 5 nM

{"chemical-smiles": "CC(C)c1c(-c2ccnc3[nH]ncc23)[nH]c2ccc(C3CCN(C(=O)CN4CC[C@@H](N(C)C)C4)CC3)cc12", "result": "0.1 to 1 µM"}

Annotate the compound `Cc1c(-c2[nH]c3ccc(C4CCN(CC(=O)N(C)C)CC4)cc3c2C(C)C)ccc2c1cnn2C` with its measured IC50.
1 to 50 µM

Annotate the compound `Cc1cn2cc(-c3[nH]c4ccc(C5CCN(C(=O)CC(C)(C)O)CC5)cc4c3CC(F)F)ccc2n1` with its measured IC50.
> 50 µM

###

# pIC50 listing for each entry below
Biological target: human TLR7 (Homo sapiens)
Sequence (Q9NYK1 27-1049): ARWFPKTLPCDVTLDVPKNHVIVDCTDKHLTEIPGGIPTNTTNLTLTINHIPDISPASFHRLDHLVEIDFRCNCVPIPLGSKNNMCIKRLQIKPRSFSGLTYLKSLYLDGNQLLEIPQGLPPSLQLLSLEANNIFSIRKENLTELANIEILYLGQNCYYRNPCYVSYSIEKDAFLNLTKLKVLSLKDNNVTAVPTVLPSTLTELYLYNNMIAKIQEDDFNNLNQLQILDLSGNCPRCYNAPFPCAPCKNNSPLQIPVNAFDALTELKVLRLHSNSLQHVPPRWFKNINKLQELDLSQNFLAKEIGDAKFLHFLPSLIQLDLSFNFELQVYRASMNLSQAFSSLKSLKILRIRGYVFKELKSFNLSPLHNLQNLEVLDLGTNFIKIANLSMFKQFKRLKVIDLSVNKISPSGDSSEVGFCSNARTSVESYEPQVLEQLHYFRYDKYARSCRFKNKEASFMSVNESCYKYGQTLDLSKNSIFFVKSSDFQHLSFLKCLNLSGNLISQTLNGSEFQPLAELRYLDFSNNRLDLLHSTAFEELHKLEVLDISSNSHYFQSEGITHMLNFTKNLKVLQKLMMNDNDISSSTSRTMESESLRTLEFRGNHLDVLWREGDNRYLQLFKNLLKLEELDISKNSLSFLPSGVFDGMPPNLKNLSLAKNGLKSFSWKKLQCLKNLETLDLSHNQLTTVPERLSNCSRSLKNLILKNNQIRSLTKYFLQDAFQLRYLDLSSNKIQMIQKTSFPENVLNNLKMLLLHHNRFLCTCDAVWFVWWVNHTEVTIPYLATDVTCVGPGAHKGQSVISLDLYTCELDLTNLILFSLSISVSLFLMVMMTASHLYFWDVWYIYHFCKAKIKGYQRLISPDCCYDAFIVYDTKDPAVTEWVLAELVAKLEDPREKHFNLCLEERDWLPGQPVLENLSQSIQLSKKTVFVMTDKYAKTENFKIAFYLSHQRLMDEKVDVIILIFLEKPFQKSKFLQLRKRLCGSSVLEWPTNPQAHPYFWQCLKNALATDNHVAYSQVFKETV
Test: TLR7 inhibition reporter assay (HEK-Blue cells, SEAP reporter, gardiquimod stimulation)
Conditions: HEK-Blue cells overexpressing human TLR7, SEAP reporter, gardiquimod 7.5 μM
pIC50: −log10 of the molar value.

Sample records with pIC50:
{"compound": "Cc1c(-c2ccnc3[nH]cc(O)c23)[nH]c2ccc(C3CCNCC3)cc12", "pIC50": "4.30 to 6.00"}
{"compound": "CC(C)c1c(-c2ccnc3[nH]ncc23)[nH]c2cc(F)c(C3CCN(CC4CCNC4)CC3)cc12 (centres unmarked)", "pIC50": "> 7.00"}
{"compound": "CNC(=O)CN1CCC(c2ccc3[nH]c(-c4cc(OC)c5nccn5c4)c(C(C)C)c3c2)CC1", "pIC50": "> 7.00"}
{"compound": "Cc1nc2c(-c3[nH]c4ccc(C5CCN(C(=O)CN(C)C)CC5)cc4c3C(C)C)ccc(C)n2n1", "pIC50": "4.30 to 6.00"}
{"compound": "CCCCc1nc(Cl)c(CN2CCC(c3ccc4[nH]c(-c5ccnc6[nH]ncc56)c(C(C)C)c4c3)CC2)[nH]1", "pIC50": "6.00 to 7.00"}

Annotate the compound `CC(C)c1c(-c2ccc(C#N)c3ncccc23)[nH]c2ccc(C3CCN(C(=O)CN(C)C)CC3)cc12` with its measured pIC50.
> 7.00

Annotate the compound `CC(C)c1c(-c2ccc3nccn3n2)[nH]c2ccc(C3CCNCC3)cc12` with its measured pIC50.
> 7.00

Annotate the compound `COc1cc(-c2[nH]c3ccc(C4CCNCC4)cc3c2C(C)C)nn2ncnc12` with its measured pIC50.
> 7.00
